Listing of entries alongside the reported cAMP antagonism % inhib.
Target: T1, human GIP receptor (human, UniProt P48546 22-466)
T1 sequence (looked up): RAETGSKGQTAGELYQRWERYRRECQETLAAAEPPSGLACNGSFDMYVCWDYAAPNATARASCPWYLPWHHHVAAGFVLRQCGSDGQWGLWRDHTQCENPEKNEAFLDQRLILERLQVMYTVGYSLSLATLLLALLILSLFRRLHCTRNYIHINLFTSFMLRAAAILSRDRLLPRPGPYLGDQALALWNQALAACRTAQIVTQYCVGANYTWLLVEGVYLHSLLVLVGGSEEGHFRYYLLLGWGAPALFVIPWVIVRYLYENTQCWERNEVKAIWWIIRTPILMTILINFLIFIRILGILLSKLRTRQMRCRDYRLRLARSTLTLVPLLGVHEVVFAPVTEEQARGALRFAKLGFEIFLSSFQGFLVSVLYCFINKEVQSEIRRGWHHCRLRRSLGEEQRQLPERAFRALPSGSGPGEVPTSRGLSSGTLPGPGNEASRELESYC
Assay: cell-based or functional assay
*1 amine or outer side, *2 acyl side, *3 side chain or, on linkers, in order; H or OH if unused. Where no end group is shown, it is not given here. Side-chain parts run from the residue outwards. [ ]: non-standard residue; d: D form. The star is where a group is joined. phenyl lactic acid = phenyl lactic acid at the N-terminus; C18 diacid = O=C(O)CCCCCCCCCCCCCCCCC(=O)*; C16 diacid = O=C(O)CCCCCCCCCCCCCCC(=O)*; γGlu = O=C(O)[C@H](CCC(=O)[*:2])N[*:1]; Glutaryl = O=C(CCCC(=O)[*:2])[*:1]; Nle = CCCC[C@H](N)C(=O)O; AEEA = NCCOCCOCC(=O)O; Aib = CC(C)(N)C(=O)O
Supply the numeric figure in %, leaving out any unit text.

INSERT INTO assay_data (binder, recorded_result) VALUES
  ('TFISDYK([γGlu-γGlu-C18])IAMDKIHQQDFVNWLLAQKGKKNDW-OH [AT561]', 97),
  ('[βGlu]GTFISDYSIA[Nle]DKIK([AEEA-AEEA-γGlu-C18 diacid])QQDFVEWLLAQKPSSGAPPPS-OH [AT701]', 63),
  ('EGTFISDYSIAMDKIK(C18)QQDFVNWLLAQKPSSGAPPPS-OH [AT628]', 94),
  ('Glutaryl-GTFISDYSIA[Nle]DKIK([AEEA-AEEA-γGlu-C18 diacid])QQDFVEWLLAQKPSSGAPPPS-OH [AT702]', 85),
  ('[βGlu]GTFISDYSIAMDKIK(C16 diacid)QQDFVNWLLAQKPSSGAPPPS-OH [AT676]', 91),
  ('EGTFISTYK([γGlu-C16 diacid])IALDKIHQQDFVEWLLAQKPSSGAPPPS-OH [AT647]', 100);

[ask] Give the reported cAMP antagonism % inhib for this binder. {phenyl lactic acid}-PGTFISDYSIAMDKIKQQDFVNWLLAQKPSSGAPPPSK(C16 diacid)-NH2 (not fully specified) [AT652]
[reply] 60

[ask] Give the reported cAMP antagonism % inhib for this binder. EGTFISDYSI[Aib]MDKIK(C16 diacid)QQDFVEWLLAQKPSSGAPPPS-OH [AT665]
[reply] 88

[ask] Give the reported cAMP antagonism % inhib for this binder. TFISDYK([AEEA-AEEA-γGlu-C18])IAMDKIHQQDFVNWLLAQKGKKNDW-OH [AT560]
[reply] 100

[ask] Give the reported cAMP antagonism % inhib for this binder. EGTFISDYSIAMDKIK([AEEA-AEEA-γGlu-C18 diacid])QQDFVNWLLAQKGPSSGAPPPS [AT589]
[reply] 95

[ask] Give the reported cAMP antagonism % inhib for this binder. EGTFISDYSIAMDKIK(C16 diacid)QQDFVNWLLAQKGKKNDWKHN-OH [AT362]
[reply] 94

Origin of the recorded values: patent US20220298218A1
